biological target: T1, human CTGF (Homo sapiens, UniProt P29279, H83D); test: SPR binding kinetics and affinity, human CTGF; details: 25° C., 1:1 binding model
T1 construct: purchased Creative Biomart
T1 sequence (P29279 with tags, fused parts or gaps H83D): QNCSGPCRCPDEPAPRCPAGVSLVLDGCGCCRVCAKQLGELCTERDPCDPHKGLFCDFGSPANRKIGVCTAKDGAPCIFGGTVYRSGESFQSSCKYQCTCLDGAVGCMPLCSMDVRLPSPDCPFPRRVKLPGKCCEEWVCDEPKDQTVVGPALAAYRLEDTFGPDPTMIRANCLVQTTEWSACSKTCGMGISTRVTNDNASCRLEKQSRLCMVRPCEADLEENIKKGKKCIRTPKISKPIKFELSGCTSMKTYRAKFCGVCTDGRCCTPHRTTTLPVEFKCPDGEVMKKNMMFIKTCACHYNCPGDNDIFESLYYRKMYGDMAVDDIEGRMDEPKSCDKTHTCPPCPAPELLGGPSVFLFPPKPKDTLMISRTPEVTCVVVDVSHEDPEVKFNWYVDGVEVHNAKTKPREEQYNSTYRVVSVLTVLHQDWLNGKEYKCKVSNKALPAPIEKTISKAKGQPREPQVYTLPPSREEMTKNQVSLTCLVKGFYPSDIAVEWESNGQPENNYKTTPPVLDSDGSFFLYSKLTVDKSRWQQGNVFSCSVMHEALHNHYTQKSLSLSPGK
# note: boundary value 10 nM maps to label 0; Kd below it maps to label 1

[[record]]
molecule = "SEQ ID NO: 3: parent CTGF-binding hNGAL lipocalin mutein (protein, lipocalin mutein) QDSTSDLIPAPPLSKVPLQQNFQDNQFHGKWYVVGRAGNNRLREDKDPPKMWATIYELKEDKSYNVTHVHFMTKKCRYIIDTFVPGSQPGEFTLGAIKSGPGMTSPLVRIVSTNYNQHAMVFFKWVNQNREWFTITLYGRTKELTSELKENFIRFSKSLGLPENHIVFPVPIDQCIDG"
discrete_label = "label 0"

[[record]]
molecule = "SEQ ID NO: 9: parent CTGF-binding hNGAL lipocalin mutein (protein, lipocalin mutein) QDSTSDLIPAPPLSKVPLQQNFQDNQFHGKWYVVGLAGNKILRIDKQPAKMFATIYELKEDKSYDVTSVRFEARSCSYTIKTFVPGSQPGEFTAGNIKSAPGQTSTLVRVVSTNYNQHAMVFFKHVSQNRETFVITLYGRTKELTSELKENFIRFSKSLGLPENHIVFPVPIDQCIDG"
discrete_label = "label 0"

[[record]]
molecule = "SEQ ID NO: 29: parent CTGF-binding hNGAL lipocalin mutein (protein, lipocalin mutein) QDSTSDLIPAPPLSKVPLQQNFQDNQFHGKWYVVGWAGNIKLREDKDPFKMSATIYELKEDKSYNVTEVVFEQKKCHYIIKTFVPGSQPGEFTLGDIKSPPGETSSLVRVVSTNYNQHAMVFFKKVFQNREFFWITLYGRTKELTSELKENFIRFSKSLGLPENHIVFPVPIDQCIDG"
discrete_label = "label 0"

[[record]]
molecule = "SEQ ID NO: 25: parent CTGF-binding hNGAL lipocalin mutein (protein, lipocalin mutein) QDSTSDLIPAPPLSKVPLQQNFQDNQFHGKWYVVGMAGNFRLREDKDPSKMGATIYELKEDKSYNVTQVQFDDKKCLYVIETFVPGSQPGEFTLGAIKSFPGFTSQLVRVVSTNYNQHAMVFFKKVYQNREVFWITLYGRTKELTSELKENFIRFSKSLGLPENHIVFPVPIDQCIDG"
discrete_label = "label 1"


Exam item: Take the molecule SEQ ID NO: 7: parent CTGF-binding hNGAL lipocalin mutein (protein, lipocalin mutein) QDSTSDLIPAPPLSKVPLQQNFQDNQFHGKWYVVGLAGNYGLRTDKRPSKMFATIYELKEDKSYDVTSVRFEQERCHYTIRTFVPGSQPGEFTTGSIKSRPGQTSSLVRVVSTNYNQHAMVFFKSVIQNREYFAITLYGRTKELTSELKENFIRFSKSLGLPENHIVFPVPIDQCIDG and say whether its Kd is less than 10 nM.
Marked response: label 0
